# TARGET OR TEST SYSTEM: T1, recombinant human IL-7Rα-His6-Fc (human, UniProt P16871 21-239)
# T1 construct: also called hIL-7R; not shown: His6 tag; Fc (captured by anti-human IgG Fc)
# T1 chain: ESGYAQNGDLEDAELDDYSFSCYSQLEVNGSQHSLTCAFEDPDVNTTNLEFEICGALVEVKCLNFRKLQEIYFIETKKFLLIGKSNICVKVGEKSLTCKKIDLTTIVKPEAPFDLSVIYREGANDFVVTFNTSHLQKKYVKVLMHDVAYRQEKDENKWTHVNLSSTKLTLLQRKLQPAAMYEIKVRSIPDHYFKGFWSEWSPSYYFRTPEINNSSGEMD
# TEST DESCRIPTION: IL-7/IL-7R neutralising ELISA; inhibition of IL-7 binding to IL-7R
# Experimental: A 7-point dilution series of the clones was prepared in 1% BSA (at 2× the assay concentration) starting at 300 nM and using a 3.2 dilution factor. […] Block buffer alone was also added to each plate as blank. […] TMB reaction was stopped after 30 minutes. EC₅₀ values were generated in Graphpad prism using the ELISA signal blank corrected A450 data and ‘log(inhibitor) vs. response—Variable slope (four parameters)’ to fit curves and generate EC₅₀.
Listed next: entries and their corresponding pEC50.
For clarity, pEC50 is expressed as the negative log10 of concentration in mol/L.

Past entries and their recorded results:
BINDER	OBSERVABLE	REPORTED RESULT
V7R-3B5 (VHH, llama ICVD, primary clone, expressed in E. coli TG1; not shown: C-terminal FLAG and 6xHis tags from vector pMEK222) VHH: EVQLVESGGGLVQVGGSLRLSCESSISTFSSDAMGWFRQAPGKEREFLAAIGWSGAVTHYSDSVQGRFTISRDNAKNTVYLQMNSLKSEDTGRYYCAEDYDTDVWQYWGQGTQVTVSS	pEC50	9.65
V7R-2B6 (VHH, llama ICVD, primary clone, expressed in E. coli TG1; not shown: C-terminal FLAG and 6xHis tags from vector pMEK222) VHH: EVQLVESGGGLVQAGGSLRLSCESSARTFSDDAMGWFRQAAGKEREFLAAINWSGAVTHYGDSVKGRFTISRDNAKNTVYLQMDSLKPEDTAVYYCAEDYDTDVWQHWGQGTQVTVSS	pEC50	9.58

Please turn your attention to the following entry.
Prompt line: Reported pEC50 for V7R-2F6 (VHH, llama ICVD, primary clone, expressed in E. coli TG1; not shown: C-terminal FLAG and 6xHis tags from vector pMEK222) VHH: EVQLVESGGGLVQAGGSLRLSCESSIGTFSSDAMGWFRQAPGKEREFLAAIGWSGTVTHYSDSVQGRFTISRDNAKNTVYLQMNSLKSEDTGRYYCAEDYDTDVWQYWGQGTQVTVSS : what is it?
Response line: 9.44
